melting point reference

Some compounds with recorded melting point:
Cc1cc(CCCOc2c(C)cc(-c3noc(C(F)(F)F)n3)cc2C)on1	61 to 62 °C
CC(=O)c1[nH]c(C)nc1C	83 to 87 °C
CC(C)Cn1c(CCCCNC(=O)Nc2ccccc2)nc2c(N)nc3c(c21)CCCC3	197 to 199 °C
Cc1cc(C)c(S(=O)(=O)NCCCCOc2ccc(-n3ccnc3)cc2)c(C)c1	130 to 131 °C
O=C(O)c1cc(Br)c2cccnc2c1O	244 to 246 °C

Kindly review the next compound as well.
Which value of melting point has been reported for `O=C(O)c1ccc(F)c2c1C=CCO2` in the records?
224 to 226 °C

====

reported.metric: melting point

Field: example entries. Status: answers known.
CCCN(CCC)C1Cc2cc3c(=O)[nH][nH]c(=O)c3cc2C1	> 300 °C
O=C(NCC(S)CO)OCc1ccc([N+](=O)[O-])cc1 (stereo unspecified)	65 to 67 °C

# get_value(readout='melting point', item= NC(=O)C1CCc2ccccc2O1 (stereo unspecified) )
125 to 127 °C

Data request, read-out melting point, for COc1cccc(NC(=O)NC2N=C(c3ccccc3)c3ccccc3N(CC(=O)N3CCCC3)C2=O)c1 (stereo unspecified)
193 to 194 °C

Fill in: melting point of `COc1ccc2c(c1)C(Cc1ccnc(F)c1)(Cc1ccnc(F)c1)c1ccccc1C2=O` is ___
155 to 157 °C

====

reported.metric: melting point

Solved entries:
CC(=O)Oc1ccc(C=O)cc1Cl	33 to 35 °C
FC(F)(F)c1ccc(-c2cc(C(F)(F)F)n3ncc(-c4ccccn4)c3n2)cc1	202 °C
Cc1ccc(S(=O)(=O)OCC2CCc3cc(C#N)ccc3C2)cc1 (stereo unspecified)	100 to 102 °C
COC(=O)c1nc(NC(=O)c2ccccn2)ccc1Oc1nc(OC)cc(OC)n1	146 to 150 °C
COc1ccc2c(c1)CC(=O)NC2c1ccccc1Cl (stereo unspecified)	203 to 205 °C
CCN(CC)CCC/C=C/c1cc2ncc(C#N)c(Nc3ccc(Sc4nccn4C)c(Cl)c3)c2cc1OC	229 to 233 °C
CSc1nccc(Oc2ccc(NC(=O)c3cc(F)cc(N4CCCCC4)c3)c3ccccc23)n1	130 to 132 °C
Cc1cc(N)cc(C)c1Oc1ccc(O)c(C(C)C)c1	180 to 181 °C
O=C1NC(=O)c2c(F)cccc21	176 to 179 °C
CC(C)(C)OC(=O)CCC1CCC(N)CC1 (stereo unspecified)	39 to 40 °C

Please report the recorded melting point for `COCc1cn(-c2cccc(C(F)(F)F)c2)nc(C(=O)N(C)OC)c1=O` .
157 to 159 °C

What value of measured melting point is listed for `Fc1nc(/C=C/c2ccccc2)cn1C(c1ccccc1)(c1ccccc1)c1ccccc1` ?
167 to 170 °C

Entry `NC(=O)C1=CCCc2cc(Sc3cccc(F)c3)cc(F)c21` : reported melting point = ?
213 to 214 °C

Value lookup for melting point; key = `Cn1cccc1C(=O)c1ccc2ccccc2c1`
108 to 110 °C

Dear colleague, I am looking for the recorded melting point of the following compound: `CC(=O)Nc1nc(CCc2ccc(C#N)cc2)cs1`
205 to 206 °C

====

# melting point listing for each entry below

Previously resolved entries follow.
N#CCCNC(=O)c1nn(C2CCCCO2)cc1NC(=O)c1cc(Cl)ccn1 (configuration not stated)	218 to 219 °C
COC(=O)C(c1ccc(Cl)cc1)c1c(Cl)cc(-n2ncc(=O)n(C)c2=O)cc1Cl (configuration not stated)	173 °C
COC(=O)[C@@H]1c2ccccc2C[C@@H]1O	72.5 to 73.5 °C
Cc1ccccc1OCCCc1oc(-n2ccnc2)nc1-c1ccc(Cl)cc1	113 to 114 °C
Fc1ccccc1N1CCN(Cc2cn3cc(Cl)ccc3n2)CC1	107 to 108 °C

State the recorded melting point for this entry: `CCNc1nc(-c2ccc(F)c3ccccc23)cc(C(C)C)n1`
77 to 78 °C

Query (compound): `O=CC(=Cc1ccc(OCc2ccc(Cl)cc2)cc1)C(C=O)=Cc1ccc(OCc2ccc(Cl)cc2)cc1` ; field requested: melting point
208 to 209 °C

# query: melting point of entry `CCS(=O)(=O)C1=C(C(=O)c2ccc(S(C)(=O)=O)cc2Cl)C(=O)CCC1`
157 to 161 °C

Endpoint output: melting point of `O=C(NCCCSc1ccncc1)c1ccsc1` . Value?
121 to 122 °C

For the compound `O=C(O)/C=C/c1cc([N+](=O)[O-])ccc1O` , what melting point is on record?
265 to 267 °C

What value of measured melting point is listed for `NC(=O)c1ccccc1NC(=S)NC(=O)c1ccccc1` ?
190 to 192 °C

What value of measured melting point is listed for `CCn1nc2c(N)nc3c(c2c1CCC1CCCCC1)CCCC3` ?
177 to 179 °C

====

reported.metric: melting point

Clc1ccc(Oc2cncc3sc(C4=NCCN4)cc23)cc1	154 to 155 °C
CCOC(=O)c1ccccc1-c1ccc(Nc2cc(CC)nc3ccnn23)cc1	223 to 225 °C
O=C(N(c1ccccc1)c1nc(C(Cl)(Cl)Cl)ns1)C(Cl)(Cl)Cl	158 °C

What value of measured melting point is listed for `CCOC(=O)N(CC(=O)O)C(=O)c1c(Cl)ccc2c(C(F)(F)F)c(OC)ccc12` ?
144 to 146 °C

Name the recorded melting point for Cc1ccccc1C(=O)CN1C(=O)C(NC(=O)Nc2cccc(CC(O)=S)c2)CN(C(=O)C(C)(C)C)c2ccccc21 (stereo not given) .
127 to 130 °C

Would you kindly share the measured melting point for CCCC(Oc1ccccc1)C(=O)NCCO[N+](=O)[O-] (stereo not given) ?
68 to 70 °C

State the recorded melting point for this entry: `CCOC(=O)c1ccc2c(c1)sc1ccccc12`
74 to 78 °C

Fill blank: measured melting point of the molecule `CCCCCCc1nc2c(N)nc3ccccc3c2n1CCCCNS(=O)(=O)c1ccccc1` is ____.
84.8 to 85.4 °C

Value lookup for melting point; key = `N#Cc1ccc(OCCCCCCOc2cccc(-c3cc4cc(C#N)ccc4o3)c2)cc1`
134 to 136 °C

# query: melting point of entry ICCCCCCOc1ccc(C2=C(c3ccccc3)CCCc3cc(OC4CCCCO4)ccc32)cc1 (stereo not given)
108 to 110 °C

Reported melting point for `CC(C)(C)c1ccc(C(=O)O)c(C(=O)O)c1` : what is it?
148 to 150 °C

Looking for the measured melting point of `COc1ccc(Cl)c(CBr)c1` , can you help?
51 to 52 °C

# query: melting point of entry CC(=O)C1(c2ccc(Br)cc2)C=CC=CC1 (stereo not given)
126 to 128 °C

====

melting point values for the compounds below.

Cc1nn(-c2ccc(C(F)(F)F)cn2)cc1COc1ccc(OC(C)(C)C(=O)O)cc1	106 to 107 °C
O=C1CCOc2ccc(O)cc21	133 to 136 °C
COC(=O)C1=C(C)NC(C)=C(S(C)(=O)=O)C1c1ccccc1[N+](=O)[O-] (stereo unspecified)	211 to 212 °C
CCOCc1nc2c(N)nc3cc(OCc4nccn4C)ccc3c2n1CC(C)(C)O	200 to 202 °C

Request the reported melting point associated with `Cc1cc(OCCCC(C)(C)C(=O)O)c(C)c(C)c1OCc1ccccc1`
105 to 107 °C

Which melting point is listed for `CCSc1nc(-c2ccc(O)cc2)cn1C` ?
210 °C

Form field: reported melting point of COc1ccc([C@@H]2OC(=O)N[C@@H]2Cc2ccc(C(F)(F)F)cc2)cc1 (racemic)
164 to 165 °C

Find the recorded melting point belonging to `N#CC1(Nc2ccc(Cl)c(Cl)c2)CCN(C(=O)c2cc(C(F)(F)F)cc(C(F)(F)F)c2)CC1` and report it.
195 to 197 °C

What melting point value was documented for this compound, Cc1oc(-c2ccccc2)nc1COc1ccc(CCC2OC(=O)NC2=O)cc1 (stereo unspecified) ?
158 to 159 °C

====

Reported values of melting point for individual entries

Below: 6 compounds and their reported melting point.
COc1cc([N+](=O)[O-])ccc1C(=O)N1CCCCC1	104 °C
CCN(CC)c1ccc(/C=C(\C)c2ccc3c(c2)C(C)(C)CCC3(C)C)cc1	89 to 90 °C
c1nnnn1C1CN2CCC1CC2 (stereo not given)	83 to 84 °C
CC(C)(C(=O)O)c1ccc(C(O)CCCN2CCC(=C3c4ccccc4CCc4ccccc43)CC2)cc1 (stereo not given)	135 to 137 °C
O=C(COc1ccc(-c2ccccc2Cl)cn1)Nc1cscc1C(=O)O	218 to 223 °C
COc1ccc2cc(CC3=C(CC(=O)O)CCCC3=O)ccc2c1Br	165 to 166 °C

I'd like to know its melting point. The compound in question is `CCOCc1nc2c(N)nc3cc(-c4cccc(C(=O)N5CCOCC5)c4)ccc3c2n1CC(C)(C)O`
152 to 154 °C

Which melting point value is on record for `COc1ccccc1NCN1CCOC1=O` ?
95.5 to 98 °C

Consider the compound shown here: CCOC(=O)C1=C(C)NN=C(CC)C1c1cccc2ccccc12 (stereo not given) What is its recorded melting point?
122 °C

Please look up its melting point: `CC(=O)C(=[N+]=[N-])C(=O)CCc1ccc(S(N)(=O)=O)cc1`
110 to 112 °C
